Target: KRas G12V (Homo sapiens, UniProt P01116, G12V);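 note: KRas binding measured by TR-FRET displacement at room temperature, IC50 fitted from percent of control values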
Sequence (P01116 1-169 isoform P01116-2 G12V): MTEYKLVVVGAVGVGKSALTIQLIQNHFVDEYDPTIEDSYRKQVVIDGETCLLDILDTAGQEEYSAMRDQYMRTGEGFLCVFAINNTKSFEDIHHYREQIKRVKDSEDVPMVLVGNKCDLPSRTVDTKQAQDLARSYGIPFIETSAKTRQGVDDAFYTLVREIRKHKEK
Assay: biochemical
measure.name: IC50 (nM)

A selection of reference data follows.
[
  {
    "molecule": "CC1(O)CCCN(c2nc(OCC34CCCN3CCC4)nc3c(F)c(-c4cccc5cccc(C6CC6)c45)ncc23)C1 (stereo not drawn) [Example 440]",
    "measurement": 844
  },
  {
    "molecule": "N#Cc1cccc2cccc(-c3ncc4c(N5CCCC(c6nc[nH]n6)C5)nc(OCC56CCCN5CCC6)nc4c3F)c12 (stereo not drawn) [Example 456]",
    "measurement": 10700
  }
]

A = O=C1CC2(CCCN(c3nc(OCC45CCCN4CCC5)nc4c(F)c(-c5cccc6cccc(C(F)F)c56)ncc34)C2)N1 (stereo not drawn) [Example 466]
B = Fc1c(-c2cccc3cccc(F)c23)ncc2c(NCCc3ccn[nH]3)nc(OCC34CCCN3CCC4)nc12 [Example 215]
Look at A and B . Which one has the lower recorded IC50 number? Provide the label of your selected option as the answer.
A
(A: 1660 nM, B: 17000 nM)
